- Test system: MDA-MB-231 breast
- Assay info: NCI tumour cell line growth inhibition, 48 h
Reported GI50 values for a set of compounds
Measurement kind: GI50

compound=C=CCCCCC/C=C\[C@H](O)C#CC#C/C=C/CO measurement_kind=GI50 readout_value="14500 nM"
compound=C=COCCCOc1ccccc1 measurement_kind=GI50 readout_value="> 100000 nM"
compound=[Cl][Hg][c]1cc(Br)cc(Br)c1 measurement_kind=GI50 readout_value="1790 nM"
compound=O=C1/C(=C/c2ccc(Br)cc2)COc2ccc(O)c(O)c21 measurement_kind=GI50 readout_value="682 nM"
compound=Clc1nc2ccccc2nc1CI measurement_kind=GI50 readout_value="3140 nM"
compound=Cc1ccc(C)c(C2=C(c3cn(C)c4ccccc34)C(=O)NC2=O)c1 measurement_kind=GI50 readout_value="> 25000 nM"
compound=O=C(CNc1ccc(Cl)cc1)Nc1ccc(-c2nc3ccccc3s2)cc1 measurement_kind=GI50 readout_value="3670 nM"
compound=N#CC(=C1C=CC(=NO)C=C1)c1ccccc1 measurement_kind=GI50 readout_value="1730 nM"
compound="CC(C)=CCNc1ncnc2c1ncn2C1OC(CO)C(O)C1O (centres undefined)" measurement_kind=GI50 readout_value="1520 nM"
